system: Mus musculus; experiment: In vivo protective dose (PD50) in mice against Escherichia coli Vogel when administered subcutaneously; format: functional; conditions: sc, read-out: PD50
Readings of ED50 for the listed molecules
readoutName: ED50 (mg/kg)

>>> print(df.to_string())
                                   molecule  testvalue
0  CC1COc2c(N3CCC(CN(C)C)C3)c(F)cc3c(=O)c(C(=O)O)cn1c23 (centres undefined)        2.6
1  CCNCC1CCN(c2c(F)cc3c(=O)c(C(=O)O)cn4c3c2OCC4C)C1 (centres undefined)         11
2  CN(C)CC1CCN(c2c(F)cc3c(=O)c(C(=O)O)cn4c3c2OCC42CC2)C1 (centres undefined)        6.3
3  CC1COc2c(N3CCN(C)CC3)c(F)cc3c(=O)c(C(=O)O)cn1c23 (centres undefined) [OFLOXACIN]        0.8

Cited source for all entries: ChEMBL document CHEMBL1124306
